molecular target: UniProt P25095
Sequence (P25095 whole entry): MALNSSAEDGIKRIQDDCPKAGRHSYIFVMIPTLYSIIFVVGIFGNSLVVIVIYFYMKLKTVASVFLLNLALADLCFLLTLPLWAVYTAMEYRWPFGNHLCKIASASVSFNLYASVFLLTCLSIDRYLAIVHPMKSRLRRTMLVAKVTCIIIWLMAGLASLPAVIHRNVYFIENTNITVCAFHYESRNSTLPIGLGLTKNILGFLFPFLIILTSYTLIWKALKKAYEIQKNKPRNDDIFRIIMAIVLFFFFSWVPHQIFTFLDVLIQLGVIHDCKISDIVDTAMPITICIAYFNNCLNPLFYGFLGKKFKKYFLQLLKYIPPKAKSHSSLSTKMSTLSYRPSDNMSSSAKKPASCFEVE
metric: IC50 (nM)
Write the number in nM without appending the unit.

Task: Recall the recorded IC50 for CCCCc1nc2c(n1Cc1ccc(-c3ccccc3S(=O)(=O)NC(=O)NCCC)cc1)C(=O)CCS2 [Example 3] with UniProt P25095 and state it.
Result: 1.3
